// Inhibition of complement mediated hemolysis (%) lookup, one value per entry
# System: complement
# TEST METHOD NOTES: Inhibition of complement mediated hemolysis
# Format: cell-based
# CONDITION CONTEXT: compound at 1 × 10^-6
VALUE KIND: Inhibition of complement mediated hemolysis (%)

compound="COC(=O)c1cc(C(=N)N)ccc1OC(=O)c1ccccc1 [Compound 25]" result=38.6
compound="COc1cc(C(=N)N)ccc1OC(=O)[C@H]1CC[C@H](CN)CC1 [Compound 17]" result=20.4
compound="N=C(N)c1ccc(OC(=O)c2ccccc2)c(C(=O)O)c1 [Compound 24, 4-amidino-2-carboxyphenyl benzoate]" result=11.0
compound="COc1cc(C(=N)N)ccc1OC(=O)CCCc1ccc(N)cc1 [Compound 65]" result=0
compound="N=C(N)c1ccc(OC(=O)c2ccc(CN)cc2)c(C(=O)c2ccccc2)c1 [Compound 64]" result=97.1
compound="COC(=O)c1cc(C(=N)N)ccc1OC(=O)c1ccc(NC(=N)N)cc1 [Compound 72]" result=10.8
compound="COc1cc(C(=N)N)ccc1OC(=O)c1ccc(C)cc1 [Compound 35]" result=29.9
compound="N=C(N)c1ccc(OC(=O)CCCCCN)c(C(=O)c2ccccc2)c1 [Compound 13]" result=0
compound="N=C(N)c1ccc(OC(=O)C=Cc2ccc3c(c2)OCO3)c([N+](=O)[O-])c1 [Compound 48]" result=75.3
compound="N=C(N)c1ccc(OC(=O)c2ccc(O)cc2)c(C(=O)c2ccccc2)c1 [Compound 46]" result=67.6
compound="N=C(N)c1ccc(OC(=O)CCN)c(C(=O)c2ccccc2)c1 [Compound 11]" result=2.5
compound="COc1cc(C(=N)N)ccc1OC(=O)CC(C)C [Compound 3, 4-amidino-2-methoxyphenyl isovalerate]" result=18.0
compound="Cc1cccc(Nc2ccccc2C(=O)Oc2ccc(C(=N)N)cc2C(=O)c2ccccc2)c1C [Compound 87]" result=0
compound="COc1cc(C(=N)N)ccc1OC(=O)C1CCCCC1 [Compound 9]" result=2.5
compound="CC(C)(C)c1ccc(C(=O)Oc2ccc(C(=N)N)cc2[N+](=O)[O-])cc1 [Compound 38]" result=96.1
compound="COc1cc(C(=N)N)ccc1OC(=O)CCCc1ccc([N+](=O)[O-])cc1 [Compound 82]" result=0
compound="COC(=O)c1cc(C(=N)N)ccc1OC(=O)c1ccc(F)cc1 [Compound 84]" result=2.0
compound="CN(C)c1ccc(C(=O)Oc2ccc(C(=N)N)cc2C(=O)c2ccccc2)cc1 [Compound 66]" result=41.7
compound="CC(=O)Oc1ccc(C(=N)N)cc1[N+](=O)[O-] [Compound 2, 4-amidino-2-nitrophenyl acetate]" result=3.9

---

# SYSTEM NAME: Thrombin (Homo sapiens, UniProt P00734)
# TEST METHOD NOTES: biochemical
# CONDITION CONTEXT: TAME hydrolysis; read-out: ID50, thrombin
pIC50: −log10 of the molar value.
VALUE KIND: pIC50

compound="COC(=O)c1cc(C(=N)N)ccc1OC(=O)c1ccc(C=O)cc1 [Compound 51]" result=6.05
compound="Cc1ccc(C(=O)Oc2ccc(C(=N)N)cc2[N+](=O)[O-])cc1 [Compound 37]" result=6.52
compound="N=C(N)c1ccc(OC(=O)[C@H]2CC[C@H](CNC(=O)OCc3ccccc3)CC2)c(C(=O)c2ccccc2)c1 [Compound 20]" result=6.30
compound="N=C(N)c1ccc(OC(=O)c2ccc(OCc3ccccc3)cc2)c(C(=O)c2ccccc2)c1 [Compound 45]" result=6.70

Values compiled from patent US4570006A.
